Tested on: rabbit CETP
procedure summary: Anti-protein ELISA of sera of immunised mice, plates coated with purified rabbit CETP
Format: in vivo, mouse
condition set: FIG. 12a; sera of immunised mice; purified rabbit CETP
Where no end group is shown, it is not given here.
Please respond with Satisfied when measured ELISA signal, rabbit CETP is strictly beneath 0.3, and with Not satisfied in all other cases.

INSERT INTO results (substance, class_assignment) VALUES
  ('p4347-KLH: C-FGFPAHVSIDWLQLLS coupled to KLH (CFGFPAHVSIDWLQLLS; also: coupled to KLH)', 'Satisfied'),
  ('p4358-KLH: C-FGFPAHISIDWLQSLS coupled to KLH (CFGFPAHISIDWLQSLS; also: coupled to KLH)', 'Not satisfied'),
  ('p4324-KLH: C-FGFPSHLIIDWAQSLS coupled to KLH (CFGFPSHLIIDWAQSLS; also: coupled to KLH)', 'Satisfied'),
  ('p4359-KLH: C-FGFPAHIIIDWLQSLS coupled to KLH (CFGFPAHIIIDWLQSLS; also: coupled to KLH)', 'Not satisfied'),
  ('p4352-KLH: C-FGFPAHVSIDWLQSIS coupled to KLH (CFGFPAHVSIDWLQSIS; also: coupled to KLH)', 'Satisfied'),
  ('p4353-KLH: C-FGFPAHVSIDWLQSLT coupled to KLH (CFGFPAHVSIDWLQSLT; also: coupled to KLH)', 'Not satisfied'),
  ('p4341-KLH: C-WGFPAHVSIDWLQSLS coupled to KLH (CWGFPAHVSIDWLQSLS; also: coupled to KLH)', 'Satisfied'),
  ('p4361-KLH: C-FGFPAHVFIDWLQSLS coupled to KLH (CFGFPAHVFIDWLQSLS; also: coupled to KLH)', 'Not satisfied'),
  ('p4340-KLH: C-PGFPAHVSIDWLQSLS coupled to KLH (CPGFPAHVSIDWLQSLS; also: coupled to KLH)', 'Satisfied');

Value source: patent US8618046B2
